We begin with a simple list: items and their reported composite z-score.
Tested on: Neuregulin-1 EGF-like domain
Assay: binders of neuregulin-1 EGF-like domain, primary screen, biochemical, small-molecule microarray, 635 nm fluorescence (AID 1081);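 further: binding of the protein to compounds printed on small-molecule microarray slides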
Settings: small-molecule microarray binding, higher = more signal
Write the number on its own, no unit after it.

Smiles Code	composite z-score
COc1ccc(C#Cc2ccc3c(c2)[C@]2(C(=O)N3)[C@H](C(=O)Nc3nc4ccccc4s3)[C@H]3C(=O)O[C@H](c4ccccc4)[C@H](c4ccccc4)N3[C@@H]2c2ccccc2OCCO)cc1	0.919
Cc1ccc(N2C(=O)c3ccccc3[C@](C)(C(=O)NCc3ccccc3)[C@@H]2c2ccc(CO)cc2)nc1	0.635
CCOC(=O)C1=C[C@@H](c2ccccc2)N(S(=O)(=O)c2ccc(C)cc2)[C@H]1c1ccccc1	0.296

Reported composite z-score, compound `C=CCN1C(=O)[C@]2(O[C@H](CCO)[C@@H]([Si](C)(C)c3ccc(OC)cc3)[C@@H]2C)c2cc(N3C(=O)COc4ccccc43)ccc21` : ____
0.698

###

Test: small-molecule binders of probe aLefty1, primary screen, biochemical, small-molecule microarray, 635/667 nm fluorescence (AID 1153);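 further: score merges spot fluorescence with signal-to-noise ratio from the scanned slide images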
Conditions: higher = more signal
Recorded Endpoint: composite z-score
Write the number on its own, no unit after it.

Here is how some molecules turned out for composite z-score.
Molecule	Value Measured
COC(=O)C(CC#Cc1ccc2c(c1)[C@]1(C(=O)N2)[C@H](c2ccc(OCCO)cc2)N2[C@H](c3ccccc3)[C@H](c3ccccc3)OC(=O)[C@H]2[C@@H]1C(=O)N1CCN(c2ncccn2)CC1)C(=O)OC	0.53
NCCCCCNC(=O)[C@@H]1C[C@@H]2C(=O)N3CCC[C@H]3C(=O)N2[C@@H]1c1ccc(O)cc1	1.08

Attention now shifts to the item below.
Reported composite z-score, molecule COCC1C2CC[C@H]3C(OCc4ccc(OC)cc4)OC[C@]4(C)[C@H]3C2=C(CN4C(=O)OC(C)(C)C)[C@H](C)C1COC (stereo partly drawn) : ____
-0.302

###

Target: Albumin (Bos taurus) (UniProt P02769)
Sequence (P02769 whole entry, looked up): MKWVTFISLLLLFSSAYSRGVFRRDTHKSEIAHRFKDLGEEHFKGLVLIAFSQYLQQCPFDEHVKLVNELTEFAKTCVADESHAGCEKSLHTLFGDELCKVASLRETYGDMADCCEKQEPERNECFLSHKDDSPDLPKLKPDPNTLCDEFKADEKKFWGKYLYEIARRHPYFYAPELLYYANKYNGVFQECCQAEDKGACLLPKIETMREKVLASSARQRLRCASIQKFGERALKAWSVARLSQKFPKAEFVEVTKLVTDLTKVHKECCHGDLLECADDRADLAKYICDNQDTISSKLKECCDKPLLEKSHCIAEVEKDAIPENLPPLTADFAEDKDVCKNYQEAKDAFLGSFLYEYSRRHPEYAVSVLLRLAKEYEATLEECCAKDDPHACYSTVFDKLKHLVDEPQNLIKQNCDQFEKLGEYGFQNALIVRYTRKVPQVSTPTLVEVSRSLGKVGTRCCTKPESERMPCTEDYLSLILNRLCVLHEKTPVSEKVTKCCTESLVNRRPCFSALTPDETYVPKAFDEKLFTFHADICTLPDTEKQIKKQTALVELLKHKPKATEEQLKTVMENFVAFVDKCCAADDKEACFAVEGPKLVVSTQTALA
Experiment: bovine serum albumin binders on microarray, profiling panel, artefact control for SMM control protein annotation, biochemical, small-molecule microarray, Alexa647 label, 635/667 nm fluorescence (AID 1118);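 further: score merges 667 nm emission intensity and signal-to-noise per printed compound spot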
Conditions: BSA-A647 binding, fluorescence 635 nm, higher = more signal
Recorded Endpoint: composite z-score
Write the number on its own, no unit after it.

Here is how some molecules turned out for composite z-score.
Molecule	composite z-score
C=CCOC(=O)[C@H]1[C@@H]2C(=O)O[C@@H](c3ccccc3)[C@@H](c3ccccc3)N2[C@@H](c2ccc(OCCOC(=O)[C@H]3C[C@H]4C(=O)N[C@@H](CCCCNC(C)=O)C(=O)N4[C@H]3c3cccc(OCCO)c3)cc2)[C@]12C(=O)Nc1ccc(I)cc12	-0.371
CC(C)C[C@@H]1NC(=O)[C@H]2C[C@@H](C(=O)NCCCCCN)[C@@H](c3cccc(OCCO)c3)N2C1=O	0.299
C[C@@H]1ON(c2ccc(I)cc2)[C@H](c2ccc(OC(=O)OC(C)(C)C)cc2)[C@H]1C(=O)N1C(=O)OC[C@H]1Cc1ccccc1	0.578
NCCCCCNC(=O)[C@H]1C[C@H]2C(=O)N[C@@H](Cc3ccccc3)C(=O)N2[C@H]1c1ccc(O)cc1	0.819
O=C1NC(=O)C2C1C=CC(C(O)c1ccccn1)N2Nc1ccc(Cl)cc1Cl (stereo unspecified)	1.02
CN1C(=O)[C@@H]2[C@@H](CC(COc3ccccc3)=C([C@H](O)CCc3ccccc3)[C@@H]2CO)C1=O	-0.112

Reported composite z-score, molecule CN1C(=O)C2C(C1=O)C1C=C(CCCO)C2C(c2cccs2)N1Cc1cc2c(cc1Br)OCO2 (stereo unspecified) : ____
1.01

How about O=C1C2C=CC(C(O)c3ccc4c(c3)OCO4)N(Nc3ccccc3)C2C(=O)N1c1ccccc1 (stereo unspecified) ?
1.01

How about `COC(=O)[C@@]1(Cc2ccc(F)cc2)[C@H]2c3cc(C(=O)N4CCCC4)n(CC4CC4)c3C[C@H]2CN1C(=O)c1ccccc1` ?
0.87

How about `CN1C(=O)[C@@]2(Cc3ccccc3)N=C(c3ccc(OCCCO)cc3)O[C@H]2c2ccccc21` ?
0.495

How about `C=C[C@@H](C)[C@H](O)c1ccc(OCCO)cc1` ?
0.189

How about `Cc1cccc([C@H]2C[C@H]3C(I)=C[C@@H]2C(=O)[C@]32CO2)c1` ?
-0.883

How about `COCC(=C=CC[C@@H](O)c1cccc(OCCO)c1)CCO` ?
0.682

How about `CC(C)(C)OC(=O)CC[C@]12N=C(c3ccc(OCCCO)cc3)O[C@H]1c1ccccc1N(Cc1ccccc1)C2=O` ?
0.0468

How about CC1CC/C=C\[C@H]2OC34C=CCN(CCN5CCOCC5)C(=O)[C@H]3N(C(C)CO)C(=O)[C@@H]4C2C(=O)O1 (stereo partly specified) ?
-0.712

How about `COC(=O)[C@@]1(Cc2ccccc2CN=[N+]=[N-])N=C(c2ccc(OCCCO)cc2)O[C@H]1c1ccccc1` ?
0.0186
